Data credit: ChEMBL document CHEMBL5257024

STUDY_TARGET: Tubulin (Sus scrofa) (UniProt P02554+P02550)
Sequence (P02550 whole entry, looked up): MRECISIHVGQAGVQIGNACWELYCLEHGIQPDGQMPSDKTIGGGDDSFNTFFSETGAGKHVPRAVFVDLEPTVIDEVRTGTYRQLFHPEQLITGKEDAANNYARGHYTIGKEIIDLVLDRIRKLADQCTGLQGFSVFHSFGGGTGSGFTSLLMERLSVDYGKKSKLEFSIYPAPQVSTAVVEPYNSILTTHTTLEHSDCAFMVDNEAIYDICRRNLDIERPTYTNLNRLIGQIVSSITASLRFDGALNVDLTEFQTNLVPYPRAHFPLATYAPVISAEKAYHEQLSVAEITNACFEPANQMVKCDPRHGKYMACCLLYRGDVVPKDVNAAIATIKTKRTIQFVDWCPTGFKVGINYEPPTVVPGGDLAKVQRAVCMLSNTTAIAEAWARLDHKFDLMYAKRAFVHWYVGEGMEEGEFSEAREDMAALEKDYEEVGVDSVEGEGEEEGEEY
Sequence (P02554 whole entry, looked up): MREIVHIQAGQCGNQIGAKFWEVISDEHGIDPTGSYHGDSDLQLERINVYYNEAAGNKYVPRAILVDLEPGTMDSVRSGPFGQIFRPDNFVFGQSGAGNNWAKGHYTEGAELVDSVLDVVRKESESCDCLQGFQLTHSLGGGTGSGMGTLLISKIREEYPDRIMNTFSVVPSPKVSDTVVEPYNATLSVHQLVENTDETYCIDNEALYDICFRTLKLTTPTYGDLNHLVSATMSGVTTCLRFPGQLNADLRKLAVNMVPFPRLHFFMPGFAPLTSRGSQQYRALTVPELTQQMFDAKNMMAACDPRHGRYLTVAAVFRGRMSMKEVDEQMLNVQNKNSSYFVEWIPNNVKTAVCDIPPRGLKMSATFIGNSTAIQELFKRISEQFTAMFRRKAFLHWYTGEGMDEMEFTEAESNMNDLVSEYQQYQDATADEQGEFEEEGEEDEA
PROTOCOL_NOTES: Inhibition of pig brain tubulin polymerization at 25 uM measured after 15 mins by fluorescence based turbidimetry
Format: tissue-based
Active and inactive are the calls of the source. No cut-off for these calls is given here.
API: response.call in 1 (active), -1 (inactive)

| MOLECULE | QUALITATIVE_LABEL |
| --- | --- |
| COc1cc(/C=C2\CC(C)C/C(=C\c3cc(OC)c(OC)c(OC)c3Br)C2=NO)c(Br)c(OC)c1OC (stereo not given) | 1 |
| COc1cc(/C=C2\CN(C)C/C(=C\c3cc(OC)c(OC)c(OC)c3Br)C2=NO)c(Br)c(OC)c1OC | -1 |
| COc1cc2c(cc1OC)C(=N/O)/C(=C/c1cc(OC)c(OC)c(OC)c1Br)CC2 | 1 |
| CCN(CC)CCON=C1/C(=C/c2cc(OC)c(OC)c(OC)c2Br)CN(C)C/C1=C\c1cc(OC)c(OC)c(OC)c1Br | -1 |
| COc1cc(/C=C2\CCc3ccc([N+](=O)[O-])cc3\C2=N\O)c(Br)c(OC)c1OC | 1 |

Request: Which outcome did this test record for the molecule COc1ccc(OC)c2c1CCC(=C\c1cc(OC)c(OC)c(OC)c1Br)/C2=N\O ?
Result: 1

Request: Which outcome did this test record for the molecule COc1ccc2c(c1)CCC(=C\c1cc(OC)c(OC)c(OC)c1Br)/C2=N\O ?
Result: 1

Request: Which outcome did this test record for the molecule COc1cc(/C=C2\CCc3c(O)cccc3\C2=N\O)c(Br)c(OC)c1OC ?
Result: 1

Request: Which outcome did this test record for the molecule COc1cc(/C=C2\CC(C)c3ccccc3\C2=N\O)c(Br)c(OC)c1OC (stereo not given) ?
Result: 1

Request: Which outcome did this test record for the molecule COc1ccc(/C=C2\CCc3ccc([N+](=O)[O-])cc3\C2=N\O)c(Cl)c1OC ?
Result: 1

---

PROTOCOL_NOTES: Cytotoxicity against human MCF-10A cells assessed as cell viability incubated for 96 hrs by MTT assay
Format: toxicity, cell-based
Set-up: concentration or dose not given beside the values
ASSAY_SETUP: read-out: Activity
READOUT: viability at 96 h (%)
Provide only the numeric value, understood in %.

Check out these entries, answers already filled in.
| MOLECULE_SMILES | UNIT_ABBREVIATION | viability at 96 h |
| --- | --- | --- |
| CCN(CC)CCO/N=C1\C(=C\c2cc(OC)c(OC)c(OC)c2Br)CCc2c(OC)ccc(OC)c21 | % | 95 |
| COc1cc(/C=C2\COC/C(=C\c3cc(OC)c(OC)c(OC)c3Br)C2=O)c(Br)c(OC)c1OC | % | 92 |
| COc1ccc(/C=C2\CCc3ccc(F)cc3C2=O)c(Cl)c1OC | % | 95 |
| COc1cc(/C=C2\CCC/C(=C\c3cc(OC)c(OC)c(OC)c3Br)C2=O)c(Br)c(OC)c1OC | % | 89 |

Then there is this compound:
Request: Indicate its recorded viability at 96 h; the compound in question is COc1ccc(/C=C2\CCc3c(O)cccc3C2=O)c(Cl)c1OC
Result: 91

---

Tested on: PANC-1
PROTOCOL_NOTES: cells
ASSAY_SETUP: Homo sapiens, PANC-1, 48 h
Description: Antiproliferative activity against human PANC-1 cells assessed as inhibition of cell growth incubated for 48 hrs by propidium iodide staining based fluorometer assay
READOUT: IC50 (µM)

Check out these entries, answers already filled in.
| MOLECULE | STUDY_TARGET | MEASURED |
| --- | --- | --- |
| COc1cccc(/C=C2\CC(C(C)C)C/C(=C\c3cccc(OC)c3Cl)C2=O)c1Cl (stereo unspecified) | PANC-1 | 14.5 |
| COc1cccc(/C=C2\CCc3ccc([N+](=O)[O-])cc3C2=O)c1Cl | PANC-1 | 3.5 |
| COc1cccc(/C=C2\CCc3ccccc3C2=O)c1Cl | PANC-1 | 27.5 |
| COc1ccc(OC)c2c1CC/C(=C\c1cc(OC)c(OC)c(OC)c1Br)C2=O | PANC-1 | 2.5 |

[1] COc1cc(/C=C2\CC(C)c3ccccc3C2=O)c(Br)c(OC)c1OC (stereo unspecified)
[2] COc1cccc(/C=C2\CC(C)c3ccccc3C2=O)c1Cl (stereo unspecified)
Request: Of 1 and 2 , whose reported IC50 is the larger number? Write the label of whichever entry you select.
Result: 2

---

System: NCI-H460
PROTOCOL_NOTES: cells
ASSAY_SETUP: Homo sapiens, NCI-H460, 48 h
Description: Antiproliferative activity against human NCI-H460 cells assessed as inhibition of cell growth incubated for 48 hrs by propidium iodide staining based fluorometer assay
pIC50: −log10 of the molar value.
READOUT: pIC50

| COMPOUND | pIC50 |
| --- | --- |
| COc1cccc(/C=C2\CCc3ccc(F)cc3C2=O)c1Cl | 4.82 |
| COc1ccc(/C=C2\CCc3c(O)cccc3C2=O)c(Cl)c1OC | 5.42 |
| COc1ccc(OC)c2c1CC/C(=C\c1cc(OC)c(OC)c(OC)c1Br)C2=O | 5.68 |
| COc1cccc(/C=C2\CCc3c(OC)cccc3C2=O)c1Cl | 5.05 |

[a] COc1cccc(/C=C2\CCc3c(O)cccc3C2=O)c1Cl
[b] COc1cc(/C=C2\CCc3ccc([N+](=O)[O-])cc3\C2=N\O)c(Br)c(OC)c1OC
Request: Which value of pIC50 is smaller, the one for a or the one for b ? Write the label of whichever entry you select.
Result: a
(a: 5.31, b: 7.40)

---

System: NCI-H460
PROTOCOL_NOTES: cells
ASSAY_SETUP: Homo sapiens, NCI-H460, 48 h
READOUT: IC50 (µM)

Check out these entries, answers already filled in.
| COMPOUND | STUDY_TARGET | MEASURED |
| --- | --- | --- |
| COc1cccc(/C=C2\CN(Cc3ccccc3)C/C(=C\c3cccc(OC)c3Cl)C2=O)c1Cl | NCI-H460 | 14.1 |
| COc1cccc(/C=C2\COC/C(=C\c3cccc(OC)c3Cl)C2=O)c1Cl | NCI-H460 | 7.4 |
| COc1cccc(/C=C2\CCc3ccc(Cl)cc3C2=O)c1Cl | NCI-H460 | 13.3 |
| COc1cccc(/C=C2\CCc3ccc(Br)cc3C2=O)c1Cl | NCI-H460 | 12.9 |
| COc1cc(/C=C2\CC(C)c3ccccc3C2=O)c(Br)c(OC)c1OC (stereo not given) | NCI-H460 | 2.2 |

[1] COc1ccc2c(c1)CCC(=C\c1cc(OC)c(OC)c(OC)c1Br)/C2=N\O
[2] COc1cccc(/C=C2\CC(C)C/C(=C\c3cccc(OC)c3Cl)C2=O)c1Cl (stereo not given)
[3] COc1cc(/C=C2\CC(C)c3ccccc3\C2=N\O)c(Br)c(OC)c1OC (stereo not given)
[4] CCN(CC)CCON=C1/C(=C/c2cc(OC)c(OC)c(OC)c2Br)CN(C)C/C1=C\c1cc(OC)c(OC)c(OC)c1Br
[5] COc1cc(/C=C2\CCc3ccc(F)cc3C2=O)c(Br)c(OC)c1OC
Request: Give the ascending ranking of the items by reported IC50. Reply format: the labels, ordered as requested.
Result: 4, 1, 3, 2, 5

---

Tested on: PANC-1
PROTOCOL_NOTES: cells
ASSAY_SETUP: Homo sapiens, PANC-1, 48 h
pIC50: −log10 of the molar value.
READOUT: pIC50

Check out these entries, answers already filled in.
| COMPOUND | STUDY_TARGET | MEASURED |
| --- | --- | --- |
| COc1ccc2c(c1)CCC(=C\c1cc(OC)c(OC)c(OC)c1Br)/C2=N\O | PANC-1 | 6.00 |
| COc1cc(/C=C2\CC(C)c3ccccc3\C2=N\O)c(Br)c(OC)c1OC (stereo not given) | PANC-1 | 5.70 |
| COc1ccc(/C=C2\CCc3ccc(Br)cc3C2=O)c(Cl)c1OC | PANC-1 | 4.97 |
| COc1cc(/C=C2\CC(C)C/C(=C\c3cc(OC)c(OC)c(OC)c3Br)C2=O)c(Br)c(OC)c1OC (stereo not given) | PANC-1 | 5.80 |
| COc1cccc(/C=C2\CC(C)C/C(=C\c3cccc(OC)c3Cl)C2=O)c1Cl (stereo not given) | PANC-1 | 5.48 |

[P] COc1cc2c(cc1OC)C(=N/O)/C(=C/c1cc(OC)c(OC)c(OC)c1Br)CC2
[Q] COc1cc(/C=C2\CN(Cc3ccccc3)C/C(=C\c3cc(OC)c(OC)c(OC)c3Br)C2=O)c(Br)c(OC)c1OC
[R] COc1ccc(/C=C2\CCc3ccccc3C2=O)c(Cl)c1OC
[S] CCN(CC)CCO/N=C1\C(=C\c2cc(OC)c(OC)c(OC)c2Br)CCc2ccc([N+](=O)[O-])cc21
Request: Output the entries ranked by pIC50 from maximum down to minimum. Reply format: the labels, ordered as requested.
Result: P, S, Q, R
(P: 5.68, S: 5.38, Q: 4.91, R: 4.61)
